- experimental_system: Estrogen receptor beta (Homo sapiens, UniProt Q92731)
- Sequence (Q92731 whole entry): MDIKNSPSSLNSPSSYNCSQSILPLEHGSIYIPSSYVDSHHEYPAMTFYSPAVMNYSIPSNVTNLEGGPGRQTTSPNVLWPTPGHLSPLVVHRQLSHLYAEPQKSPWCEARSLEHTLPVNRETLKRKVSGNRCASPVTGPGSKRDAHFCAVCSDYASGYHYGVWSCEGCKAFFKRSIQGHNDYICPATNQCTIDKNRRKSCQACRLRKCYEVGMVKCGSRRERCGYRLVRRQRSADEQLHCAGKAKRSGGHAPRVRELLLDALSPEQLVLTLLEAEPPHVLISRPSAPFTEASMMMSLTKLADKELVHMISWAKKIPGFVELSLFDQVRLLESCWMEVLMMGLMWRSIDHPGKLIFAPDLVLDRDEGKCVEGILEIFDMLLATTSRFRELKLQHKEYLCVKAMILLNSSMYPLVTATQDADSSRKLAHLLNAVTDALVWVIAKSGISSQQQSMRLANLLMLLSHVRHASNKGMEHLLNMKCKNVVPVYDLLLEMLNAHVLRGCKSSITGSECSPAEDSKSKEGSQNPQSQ
- protocol: Agonist activity at human ERbeta receptor expressed in human HEK293 cells co-expressing ERE assessed as increase of estradiol-induced luciferase gene expression at 1 uM after 18 hrs relative to estradiol
- Type: cell-based
- measurement_conditions: hek293, 18 h, 1 µM
experimental_readout: Activity

Below, each entry is followed by its recorded Activity result.
1. CC(C)(C)c1cc(/C=C/c2cc(O)cc(O)c2)cc(C(C)(C)C)c1O : Not Active
2. CC(C)(C)c1cc(/C=C/C=C/c2cc(O)cc(O)c2)cc(C(C)(C)C)c1O : Not Active
3. CCC(CC)c1cc(/C=C/c2cc(O)cc(O)c2)ccc1O : Not Active
4. CCC(CC)c1cc(/C=C/C=C/c2cc(O)cc(O)c2)ccc1O : Not Active
5. CC(C)(C)c1cc(/C=C/c2cc(O)cc(O)c2)ccc1O : Not Active

Asked: I would be grateful if you could share the reported Activity for CCC(CC)c1cc(/C=C/C=C/c2cc(O)cc(O)c2)cc(C(CC)CC)c1O .
Given back: Not Active

Asked: Next entry: CCC(CC)c1cc(/C=C/c2cc(O)cc(O)c2)cc(C(CC)CC)c1O
Given back: Not Active

Asked: # iterate: CC(C)(C)c1cc(/C=C/c2cc(C(C)(C)C)c(O)c(C(C)(C)C)c2)cc(C(C)(C)C)c1O
Given back: Not Active
